- PROTOCOL_DESCRIPTION: Concentration response confirmation VP16 counterscreen for inhibitors of ROR gamma transcriptional activity; further: nearly all actives have a fitted effect of over 70% in size
- SETUP_CONDITIONS: Drosophila S2 Gal4-VP16 UAS-luciferase, luminescence, 20 h; series mostly up to 46.1 µM
Results filed as inconclusive are left out. The source made the active and inactive calls. The call rests on the fitted dose curve; in most records, active means well fitted inhibition curve with a large enough effect; inconclusive means small, poorly fitted or top-dose-only effect, or effect the other way; inactive means no such curve, though single readings can be large or run the other way.
A correct response names exactly one class from t (active), f (inactive)

Task: # outcome recorded in this test, key = COc1ccc(-c2nc(CS(=O)(=O)CC(=O)NCCc3ccc(C)cc3)c(C)o2)cc1
Output: f

Task: # outcome recorded in this test, key = Cc1cccc(-c2ocnc2C(=O)Nc2ccccc2NC(=O)c2ccccn2)c1
Output: t

Task: # outcome recorded in this test, key = COc1ccc(OC)c(NC(=S)N(CCc2c(C)[nH]c3ccccc23)Cc2cccs2)c1
Output: f

Task: # outcome recorded in this test, key = Cc1ccc(S(=O)(=O)NCc2ccncc2)c(C)c1C
Output: t

Task: # outcome recorded in this test, key = Fc1cccc2sc(Nc3nnc(-c4ccco4)o3)nc12
Output: t

Task: # outcome recorded in this test, key = CN1CCN(C(=O)CCN2C(=O)/C(=C\c3ccccc3F)SC2=S)CC1
Output: f

Task: # outcome recorded in this test, key = Cc1ccc2nc(-c3ccc(NC(=O)COC(=O)c4ccc([N+](=O)[O-])o4)cc3)sc2c1
Output: t

Task: # outcome recorded in this test, key = O=C(O)/C=C/C(=O)Nc1ccccc1SC(F)(F)F
Output: f

Task: # outcome recorded in this test, key = COc1cc(CNS(=O)(=O)c2ccc3c(c2)CC(C)N3C(=O)C2CCC2)cc(OC)c1OC (centres undefined)
Output: t

Task: # outcome recorded in this test, key = Oc1ccc(COCc2ccccc2)c2cccnc12
Output: t

Task: # outcome recorded in this test, key = COCC1CCCCN1C(=O)c1cc(COc2ccc3ncccc3c2)on1 (centres undefined)
Output: t

Task: # outcome recorded in this test, key = NC(=O)/C=C/C(=O)Nc1ccc(Cl)cc1
Output: t

Task: # outcome recorded in this test, key = CC(C)(C)c1ccc(-c2noc(CCC(=O)Nc3cccnc3)n2)cc1
Output: t

Task: # outcome recorded in this test, key = CCOC(=O)c1oc2cccc(OCC(O)CNC(C)C)c2c1C (centres undefined)
Output: f

Task: # outcome recorded in this test, key = Oc1ccccc1-c1cc(-c2ccc3c(c2)OCCO3)n[nH]1
Output: t

Task: # outcome recorded in this test, key = Cc1cc(Br)c2nc3c(c(C(=O)O)c2c1)CCCCC3
Output: f

Task: # outcome recorded in this test, key = Cc1cc(-c2ccccc2)nc(N2CCC(C(=O)NCc3ccccc3Cl)CC2)n1
Output: f

Task: # outcome recorded in this test, key = O=C(CSc1nc2ccc(NC(=O)CSc3nnnn3Cc3ccccc3)cc2s1)Nc1ccccc1
Output: f

Task: # outcome recorded in this test, key = Cc1cc(C)c2[nH]c(C(=O)Nc3ccc4c(c3)OCO4)cc2c1
Output: f

Task: # outcome recorded in this test, key = COc1ccc2oc(=O)c(C(=O)Nc3ccccc3C)cc2c1
Output: t

Task: # outcome recorded in this test, key = O=C(NCC1CCCO1)C(C(=O)c1ccccc1)n1ccccc1=O (centres undefined)
Output: f

Task: # outcome recorded in this test, key = COc1ccc2nc(NC(=O)c3sc4nc(C)cc(C)c4c3N)sc2c1
Output: t

Task: # outcome recorded in this test, key = COC(=O)c1ccc2nc(Nc3nc4ccc(F)cc4s3)sc2c1
Output: t

Task: # outcome recorded in this test, key = Cc1cccc(NC(=O)c2cc3ccccc3o2)c1
Output: t

Task: # outcome recorded in this test, key = CCOC(=O)c1ccc2nc(Nc3nc4ccc(F)cc4s3)sc2c1
Output: t

Task: # outcome recorded in this test, key = Cn1c(=O)[nH]c(=O)c2c1nc(NCc1ccco1)n2Cc1ccccc1Cl
Output: f

Task: # outcome recorded in this test, key = CC(C)(C)S(=O)(=O)c1cnc2c(-c3ccc(Cl)cc3)cnn2c1N
Output: t

Task: # outcome recorded in this test, key = CC1Oc2ccccc2N(CC(=O)NCCN2CCOCC2)C1=O (centres undefined)
Output: f

Task: # outcome recorded in this test, key = CCOC(=O)[C@@H]1[C@H]2COc3cc(OC)ccc3[C@@H]2N2C(=O)N(c3ccc(C)cc3)C(=O)[C@@]12C
Output: f

Task: # outcome recorded in this test, key = CN(Cc1nc2ccccc2c(=O)[nH]1)Cc1nc2ccsc2c(=O)[nH]1
Output: t

Task: # outcome recorded in this test, key = Cc1c(CCC(=O)N[C@@H](CC(C)C)C(=O)O)c(=O)oc2cc3oc4c(c3cc12)CCCC4
Output: t

Task: # outcome recorded in this test, key = COc1ccc(-n2ncc(Cl)c(Cl)c2=O)cc1
Output: t

Task: # outcome recorded in this test, key = OCCNc1nc2ccccc2n1-c1ncnc2sc3c(c12)CCC3
Output: t

Task: # outcome recorded in this test, key = C=CCn1c(SCC(=O)c2ccc(OC)cc2)nnc1-c1cc2cccc(OC)c2o1
Output: f

Task: # outcome recorded in this test, key = Cc1cc(C)c(S(=O)(=O)NCCn2ccc3ccccc32)c(C)c1
Output: f

Task: # outcome recorded in this test, key = CCN(C1CCCCC1)S(=O)(=O)c1ccc(S(=O)(=O)NCc2ccncc2)cc1
Output: t

Task: # outcome recorded in this test, key = Cc1ccc(NC(=O)CCN2CCN(C)CC2)cc1
Output: f

Task: # outcome recorded in this test, key = S=c1[nH]nc(-c2cc(-c3ccccn3)nc3ccccc23)o1
Output: f

Task: # outcome recorded in this test, key = S=c1[nH]c(-c2ccc(Br)cc2)cn1CCc1ccccc1
Output: t

Task: # outcome recorded in this test, key = O=C1NC2=C(C(=O)CCC2)C(c2ccccc2)N1 (centres undefined)
Output: f

Task: # outcome recorded in this test, key = CCN(CC(=O)Nc1ccc2c(c1)CCC2)Cc1nc2ccccc2c(=O)[nH]1
Output: t

Task: # outcome recorded in this test, key = CCC(C)NC(=O)CSc1nnc(-c2cc(-c3ccc(C)cc3)nc3ccccc23)n1N (centres undefined)
Output: f

Task: # outcome recorded in this test, key = O=[N+]([O-])c1ccccc1/C=C/C=N/n1c(-c2ccccc2)n[nH]c1=S
Output: f

Task: # outcome recorded in this test, key = CCOc1cc(C)c(S(=O)(=O)NC2CCCCC2)cc1C
Output: f
